# experimental_parameters: pampa; 60.0 min; 50.0 µM
measurement_name: Papp (×10⁻⁶ cm/s)
# unit: ×10⁻⁶ cm/s | format: bare number

{"columns": ["compound", "Papp [×10⁻⁶ cm/s]"],
 "data": [
  ["O=C(NN1CCCCC1)c1nn(-c2ccc(Cl)cc2Cl)c(-c2ccc(C#Cc3ccc(C(F)(F)F)cc3)s2)c1CNS(=O)(=O)N1CCCC1", 4]
]}

Inquiry: Would you kindly share the measured Papp for O=C1/C(=C\c2ccccc2)C[C@@]2(O)[C@H]3Cc4ccc(O)c5c4[C@@]2(CCN3CC2CC2)[C@@H]1O5 ?
Reply text: 158

Inquiry: Now try CC[C@@]1(O)C(=O)OCc2c1cc1n(c2=O)Cc2c-1nc1ccccc1c2/C=N/OC(C)(C)C .
Reply text: 81

Inquiry: Now try COc1c(C)cnc(Cn2cnc3c(Cl)nc(N)nc32)c1C .
Reply text: 3.17

Inquiry: Now try N#Cc1ccc(C(=O)Nc2ccc(Cl)c(-c3nc4ncccc4o3)c2)c(F)c1 .
Reply text: 160

Inquiry: Now try CCO/N=C(\C(=O)N[C@@H]1C(=O)N2C(C(=O)O)=C(Sc3nc(-c4cc[n+](C)cc4)cs3)CS[C@H]12)c1nsc(NP(=O)(O)O)n1 .
Reply text: 2

Inquiry: Now try CCC(=O)O[C@@H](OP(=O)(CCCCc1ccccc1)CC(=O)N1C[C@H](C2CCCCC2)C[C@H]1C(=O)O)C(C)C (some centres undefined) .
Reply text: 118

Inquiry: Now try CCCN(CCC)C1CCc2cccc(O)c2C1 (centres undefined) .
Reply text: 88

Inquiry: Now try CC1(C)SCCN(S(=O)(=O)c2ccc(Oc3ccncc3)cc2)[C@H]1C(=O)NO .
Reply text: 9

Inquiry: Now try c1ccc(Nc2nc3c(s2)CCCc2[nH]ncc2-3)nc1 .
Reply text: 194

---

# experimental_parameters: pampa; 60.0 min; 50.0 µM
measurement_name: Papp

Below, each entry is followed by its recorded Papp result.
{"columns": ["molecule_smiles", "measurement"],
 "data": [
  ["NC(=O)[C@@H]1C[C@]2(NC(=O)NC2=O)c2cc(F)ccc2O1", "< 1 ×10⁻⁶ cm/s"],
  ["CO/N=C(/C(=O)N[C@@H]1C(=O)N2C(C(=O)O)=CCS[C@H]12)c1csc(N)n1", "< 1 ×10⁻⁶ cm/s"]
]}

Inquiry: Would you kindly share the measured Papp for Cn1nnnc1Sc1ncnc2scc(-c3ccc(Cl)cc3)c12 ?
Reply text: > 300 ×10⁻⁶ cm/s

---

# experimental_parameters: pampa; 60.0 min; 50.0 µM
measurement_name: Papp

Below, each entry is followed by its recorded Papp result.
{"columns": ["compound", "Papp"],
 "data": [
  ["NC(=O)[C@H](Cc1ccccc1)NC(=O)[C@H](Cc1ccccc1)NC(=O)[C@@H]1CCCN1C(=O)[C@@H](N)Cc1ccc(O)cc1", "< 1 ×10⁻⁶ cm/s"],
  ["COc1ccccc1NC(=O)C1=C(C)Nc2c(C(=O)Nc3ccc(F)cc3)cnn2C1c1ccc(Cl)cc1 (stereo not drawn)", "< 1 ×10⁻⁶ cm/s"]
]}

Kindly review the next compound as well.
Inquiry: Would you kindly share the measured Papp for CC(=O)OCC1=C(C(=O)O)N2C(=O)[C@@H](N)[C@H]2SC1 ?
Reply text: < 1 ×10⁻⁶ cm/s

---

# experimental_parameters: pampa; 60.0 min; 50.0 µM
measurement_name: Papp (×10⁻⁶ cm/s)
# unit: ×10⁻⁶ cm/s | format: bare number

Below, each entry is followed by its recorded Papp result.
{"columns": ["molecule", "readout_unit", "Papp"],
 "data": [
  ["Cn1nnnc1Sc1ncnc2scc(-c3cccs3)c12", "×10⁻⁶ cm/s", 244],
  ["CCC(=O)C1=C(c2ccc(F)cc2)N(C(=O)CC)n2cnnc2S1", "×10⁻⁶ cm/s", 189],
  ["N=c1c2c(-c3ccccc3)cn(Cc3ccccc3)c2ncn1CCN", "×10⁻⁶ cm/s", 131],
  ["COc1ccc(C)cc1Nc1c2c(nc3ccccc13)CCC2", "×10⁻⁶ cm/s", 215]
]}

Kindly review the next molecule as well.
Inquiry: Would you kindly share the measured Papp for N#Cc1ccnc(Nc2cc(C3CCN(C4COC4)CC3)cc(N3CCC(F)(F)C3)n2)c1 ?
Reply text: 133

---

# maps each entry to its Papp
# experimental_parameters: pampa; 60.0 min; 50.0 µM
# unit: ×10⁻⁶ cm/s | format: bare number

{"columns": ["molecule_smiles", "Papp [×10⁻⁶ cm/s]"],
 "data": [
  ["COCCNCCCn1c(C(=O)CF)c(-c2ccc(C)cc2)c2c(N)ncnc21", 20]
]}

Inquiry: Would you kindly share the measured Papp for CC=CC1=C(C(=O)O)N2C(=O)[C@@H](NC(=O)[C@H](N)c3ccc(O)cc3)[C@H]2SC1 ?
Reply text: 282

Inquiry: Now try CC(C)CNc1ccnc(NCc2csc(-c3ccccc3)n2)n1 .
Reply text: 228

---

# experimental_parameters: pampa; 60.0 min; 50.0 µM
# maps each entry to its Papp

Below, each entry is followed by its recorded Papp result.
{"columns": ["compound", "Papp"],
 "data": [
  ["CC(=O)OC(C)OC(=O)C(C)c1ccc(-c2ccccc2)c(F)c1 (centres undefined)", "> 300 ×10⁻⁶ cm/s"],
  ["O=C(O)C1=C(CSc2nnnn2CS(=O)(=O)O)CS[C@@H]2[C@H](NC(=O)[C@H](O)c3ccccc3)C(=O)N12", "12 ×10⁻⁶ cm/s"],
  ["N=c1c2c(-c3ccccc3)cn(Cc3ccccc3)c2ncn1C(CO)(CO)CO", "> 300 ×10⁻⁶ cm/s"]
]}

Inquiry: Would you kindly share the measured Papp for N=c1c2c(-c3ccccc3)cn(Cc3ccccc3)c2ncn1[C@@H]1CCCC[C@H]1N ?
Reply text: 101 ×10⁻⁶ cm/s

---

# maps each entry to its Papp
# experimental_parameters: pampa; 60.0 min; 50.0 µM
# unit: ×10⁻⁶ cm/s | format: bare number

Inquiry: Would you kindly share the measured Papp for CC(C)C[C@H](CO)Nc1nc(S[C@@H](C)c2ccccc2)nc2nc(N)sc12 ?
Reply text: 244

Inquiry: Now try CC(=O)Nc1cccc(-n2c(=O)n(C3CC3)c(=O)c3c(Nc4ccc(I)cc4F)n(C)c(=O)c(C)c32)c1 .
Reply text: 259

---

# maps each entry to its Papp
# experimental_parameters: pampa; 60.0 min; 50.0 µM

Below, each entry is followed by its recorded Papp result.
{"columns": ["molecule", "Papp"],
 "data": [
  ["COC(=O)C[C@@H](C(=O)OC)n1cnc2c(c(-c3ccccc3)cn2Cc2ccc(Br)cc2)c1=N", "< 1 ×10⁻⁶ cm/s"],
  ["Cn1c(CCCCCCC(=O)NO)nc2cc(N(CCCl)CCCl)ccc21", "< 1 ×10⁻⁶ cm/s"],
  ["N=c1c2c(-c3ccccc3)c(-c3ccccc3)n(CCc3ccccc3)c2ncn1[C@H](CO)Cc1ccccc1", "< 1 ×10⁻⁶ cm/s"],
  ["CO[C@@]1(NC(=O)C2SC(=C(C(N)=O)C(=O)O)S2)C(=O)N2C(C(=O)O)=C(CSc3nnnn3C)CS[C@@H]21 (stereo partly specified)", "< 1 ×10⁻⁶ cm/s"],
  ["CC/C=C(\\C(=O)N[C@@H]1C(=O)N2C(C(=O)OCOC(=O)C(C)(C)C)=C(COC(N)=O)CS[C@H]12)c1csc(N)n1", "< 1 ×10⁻⁶ cm/s"]
]}

Kindly review the next molecule as well.
Inquiry: Would you kindly share the measured Papp for Nc1ccc(-c2ccc3ncc4ccc(=O)n(-c5cccc(C(F)(F)F)c5)c4c3c2)cn1 ?
Reply text: > 300 ×10⁻⁶ cm/s

---

# experimental_parameters: pampa; 60.0 min; 50.0 µM
# maps each entry to its Papp

Inquiry: Would you kindly share the measured Papp for CCS(=O)(=O)N1CC(CC#N)(n2cc(-c3ncnc4[nH]ccc34)cn2)C1 ?
Reply text: < 1 ×10⁻⁶ cm/s

Inquiry: Now try CN1CCCC(=C(c2cccs2)c2cccs2)C1 .
Reply text: < 1 ×10⁻⁶ cm/s

Inquiry: Now try O=c1c2c(c1=O)N(CCP(=O)(O)O)CCCN2 .
Reply text: < 1 ×10⁻⁶ cm/s

Inquiry: Now try O=C(Nc1ccccc1)N1CCC(Cc2cnc3ccccc3c2)CC1 .
Reply text: > 300 ×10⁻⁶ cm/s

Inquiry: Now try O=C(N[C@H]1CCS[C@H]2CCC[C@@H](C(=O)O)N2C1=O)[C@@H](S)Cc1ccccc1 .
Reply text: < 1 ×10⁻⁶ cm/s

---

# maps each entry to its Papp
# experimental_parameters: pampa; 60.0 min; 50.0 µM
# unit: ×10⁻⁶ cm/s | format: bare number

Below, each entry is followed by its recorded Papp result.
{"columns": ["compound", "readout_unit", "Papp"],
 "data": [
  ["NCCCNCCCCNC(=O)C(O)NC(=O)CCCCCCN=C(N)N (configuration not stated)", "×10⁻⁶ cm/s", 38],
  ["FC(F)(F)c1ccccc1-c1cc(C(F)(F)F)c2nc(C3=NOC4(CCCCC4)C3)[nH]c2c1", "×10⁻⁶ cm/s", 8]
]}

Inquiry: Would you kindly share the measured Papp for COc1ccc(Cn2c(-c3ccccc3)c(-c3ccccc3)c3c(=N)n(CCCCO)cnc32)cc1 ?
Reply text: 279

Inquiry: Now try Cn1nnnc1Sc1ncnc2scc(-c3cccc(C(F)(F)F)c3)c12 .
Reply text: 296
